Where do these numbers come from? They come from patent US20250250357A1.

# target.or.test.system: T1, human MSLN-R3-his protein (human, UniProt Q13421 487-598)
# T1 construct: also called human MSLN-R3 protein; hMSLN-R3-his; not shown: His tag
# T1 sequence (Q13421 495-606): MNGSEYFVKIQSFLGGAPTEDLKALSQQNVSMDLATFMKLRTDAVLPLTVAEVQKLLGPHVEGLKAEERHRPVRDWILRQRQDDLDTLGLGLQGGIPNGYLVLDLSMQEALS
# test.name: ELISA, coated antigen; antibody 10 nM
# OD450 per record follows
property.label: OD450 (OD450)

• S009-F3.74.20 (antibody, human IgG1, kappa, V domains shown, Human-murine chimeric antibody, human IgG1/kappa constant regions) VH: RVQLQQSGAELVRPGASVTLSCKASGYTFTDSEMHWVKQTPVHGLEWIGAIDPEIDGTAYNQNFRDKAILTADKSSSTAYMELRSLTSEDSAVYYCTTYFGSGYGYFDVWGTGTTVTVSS VL: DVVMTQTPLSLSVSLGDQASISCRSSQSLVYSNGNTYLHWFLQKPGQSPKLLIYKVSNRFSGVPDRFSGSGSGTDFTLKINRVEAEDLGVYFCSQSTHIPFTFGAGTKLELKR = 1.83
• S009-F3.7.3 (antibody, human IgG1, kappa, V domains shown, Human-murine chimeric antibody: murine VH/VL on human IgG1 heavy chain constant region and human kappa constant region) VH: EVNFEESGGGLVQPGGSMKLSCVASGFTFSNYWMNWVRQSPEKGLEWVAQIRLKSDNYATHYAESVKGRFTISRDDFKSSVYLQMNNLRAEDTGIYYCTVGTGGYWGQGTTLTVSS VL: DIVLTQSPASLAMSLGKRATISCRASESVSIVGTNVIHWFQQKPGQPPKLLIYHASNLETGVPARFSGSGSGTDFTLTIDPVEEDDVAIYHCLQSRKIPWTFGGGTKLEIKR = 1.74
• S009-F3.80.22 (antibody, human IgG1, kappa, V domains shown, Human-murine chimeric antibody, human IgG1/kappa constant regions) VH: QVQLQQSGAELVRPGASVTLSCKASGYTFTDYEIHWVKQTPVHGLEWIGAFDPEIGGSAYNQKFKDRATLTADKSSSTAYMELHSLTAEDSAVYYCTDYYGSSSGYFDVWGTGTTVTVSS VL: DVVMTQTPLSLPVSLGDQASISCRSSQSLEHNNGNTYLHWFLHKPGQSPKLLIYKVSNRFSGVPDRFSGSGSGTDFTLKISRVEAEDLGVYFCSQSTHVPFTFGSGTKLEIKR = 1.88
